FYI, the data here is from paper PMC13408441.

# PROTOCOL_SUMMARY: CD secondary structure of GOLPH3 proteins (BestSel fits)
# Format: physicochemical, human
# CONDITION_DESCRIPTION: 10 μM, 100 mM NaCl, 50 mM Tris pH 7.4, 1 mM TCEP, 20 °C
OBSERVED_PROPERTY: % alpha (%)
Unit % implied. Number only.

Sample D247R/D258R/D262R: recombinant GOLPH3 triple mutant D247R/D258R/D262R (protein, UniProt Q9H4A6 1-298, looked up, variant D247R D258R D262R) Golgi phosphoprotein 3: MTSLTQRSSGLVQRRTEASRNAADKERAAGGGAGSSEDDAQSRRDEQDDDDKGDSKETRLTLMEEVLLLGLKDREGYTSFWNDCISSGLRGCMLIELALRGRLQLEACGMRRKSLLTRKVICKSDAPTGDVLLDEALKHVKETQPPETVQNWIELLSGETWNPLKLHYQLRNVRERLAKNLVEKGVLTTEKQNFLLFDMTTHPLTNNNIKQRLIKKVQEAVLDKWVNDPHRMDRRLLALIYLAHASRVLENAFAPLLREQYRLATKRVRQLLDLDPEVECLKANTNEVLWAVVAAFTK — what was its % alpha?
38
